- target under test: Cannabinoid receptor 1 (Homo sapiens, UniProt P21554)
- Sequence (P21554 whole entry): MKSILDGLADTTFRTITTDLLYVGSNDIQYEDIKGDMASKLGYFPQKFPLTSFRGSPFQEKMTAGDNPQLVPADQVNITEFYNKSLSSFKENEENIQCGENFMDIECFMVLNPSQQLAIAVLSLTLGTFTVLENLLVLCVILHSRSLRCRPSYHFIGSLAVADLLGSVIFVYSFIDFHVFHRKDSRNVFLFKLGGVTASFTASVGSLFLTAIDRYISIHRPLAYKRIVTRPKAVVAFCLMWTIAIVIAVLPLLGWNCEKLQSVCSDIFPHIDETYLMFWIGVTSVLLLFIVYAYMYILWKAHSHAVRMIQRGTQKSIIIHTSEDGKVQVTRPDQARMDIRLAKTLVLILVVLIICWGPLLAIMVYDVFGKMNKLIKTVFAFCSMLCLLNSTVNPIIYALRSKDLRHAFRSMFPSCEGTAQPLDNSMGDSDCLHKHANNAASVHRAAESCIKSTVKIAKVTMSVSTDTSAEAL
- test summary: Antagonist activity at human cannabinoid CB1 receptor
// EC50 lookup, one value per entry
Field format: number, assumed nM, no unit text.

compound structure string: Cc1cc(S(=O)(=O)N2CCc3c(nc(CC(C)(C)C)n3CC3CC3)C2)no1
target under test: Cannabinoid receptor 1 (Homo sapiens, UniProt P21554)
display unit: nM
measured number: 7

Lab note: need EC50 with Cannabinoid receptor 1 (Homo sapiens, UniProt P21554) for entry "Cc1cc(S(=O)(=O)N2CCc3c(nc(C(C)(C)C)n3CC3CC3)C2)no1" , please look it up.
5.1

====

- test summary: Antagonist activity at cannabinoid receptor (unknown origin)
- Set-up: species or system Homo sapiens
recorded endpoint: pIC50
For clarity, pIC50 is expressed as the negative log10 of concentration in mol/L.

compound structure string: CCOc1ccc(-c2ccc(CNS(=O)(=O)c3cc4cc(Cl)ccc4[nH]3)cc2)cn1
recorded endpoint: pIC50
measured number: 8.40

Using the record for "O=S(=O)(NCc1ccc(-c2ccc(F)cc2F)cn1)c1cc2cc(Cl)ccc2[nH]1" , report its pIC50.
8.52

====

- target under test: Cannabinoid receptor 2 (Homo sapiens, UniProt P34972)
- Sequence (P34972 whole entry): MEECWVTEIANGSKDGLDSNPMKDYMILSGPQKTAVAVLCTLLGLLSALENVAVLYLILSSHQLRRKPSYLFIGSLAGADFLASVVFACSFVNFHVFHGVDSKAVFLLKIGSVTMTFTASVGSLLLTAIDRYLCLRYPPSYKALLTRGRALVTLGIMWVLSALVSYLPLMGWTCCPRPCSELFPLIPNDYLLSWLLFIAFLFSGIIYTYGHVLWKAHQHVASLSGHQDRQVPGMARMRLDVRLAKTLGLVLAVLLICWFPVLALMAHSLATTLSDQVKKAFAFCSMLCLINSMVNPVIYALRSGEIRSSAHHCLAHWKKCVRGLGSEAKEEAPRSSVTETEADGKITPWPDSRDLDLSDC
recorded endpoint: pKi
For clarity, pKi is expressed as the negative log10 of concentration in mol/L.

Using the record for "O=C(NN1CCCCC1)c1cn(-c2ccc(Cl)cc2Cl)c(-c2ccc(C#Cc3ccc(C(F)(F)F)cc3)s2)c1CNS(=O)(=O)N1CCCC1" , report its pKi.
7.68

====

- System: Leishmania amazonensis
- test summary: Antileishmanial activity against Leishmania amazonensis
- Format: functional, organism-based
recorded endpoint: pIC50
For clarity, pIC50 is expressed as the negative log10 of concentration in mol/L.

Using the record for "O=S(=O)(Nc1cccc2cnccc12)c1ccc2ccccc2c1" , report its pIC50.
4.37

====

- test summary: Inhibition of HIV integrase
- Set-up: species or system Human immunodeficiency virus
recorded endpoint: pIC50
For clarity, pIC50 is expressed as the negative log10 of concentration in mol/L.

Using the record for "CN(C)c1cccnc1N1CCN(C(=O)c2cc3cc(NS(C)(=O)=O)ccc3[nH]2)CC1" , report its pIC50.
7.44

====

- test summary: Inhibition of rat 5'-nucleotidase
recorded endpoint: pIC50
For clarity, pIC50 is expressed as the negative log10 of concentration in mol/L.

Using the record for "COc1ccc(/C=C/C(=O)/C(=N/Nc2ccc(S(N)(=O)=O)cc2)N2CCOCC2)cc1" , report its pIC50.
6.48

====

- target under test: Cannabinoid receptor 1 (Homo sapiens)
- test summary: Antagonist activity at cannabinoid CB1 receptor (unknown origin)
recorded endpoint: pEC50
For clarity, pEC50 is expressed as the negative log10 of concentration in mol/L.

Using the record for "O=C(NN1CCCCC1)c1cn(-c2ccc(Cl)cc2Cl)c(-c2ccc(C#Cc3ccc(C(F)(F)F)cc3)s2)c1CNS(=O)(=O)N1CCCC1" , report its pEC50.
8.52

====

- target under test: Prostaglandin G/H synthase 2 (Rattus norvegicus, UniProt P35355)
- Sequence (P35355 whole entry): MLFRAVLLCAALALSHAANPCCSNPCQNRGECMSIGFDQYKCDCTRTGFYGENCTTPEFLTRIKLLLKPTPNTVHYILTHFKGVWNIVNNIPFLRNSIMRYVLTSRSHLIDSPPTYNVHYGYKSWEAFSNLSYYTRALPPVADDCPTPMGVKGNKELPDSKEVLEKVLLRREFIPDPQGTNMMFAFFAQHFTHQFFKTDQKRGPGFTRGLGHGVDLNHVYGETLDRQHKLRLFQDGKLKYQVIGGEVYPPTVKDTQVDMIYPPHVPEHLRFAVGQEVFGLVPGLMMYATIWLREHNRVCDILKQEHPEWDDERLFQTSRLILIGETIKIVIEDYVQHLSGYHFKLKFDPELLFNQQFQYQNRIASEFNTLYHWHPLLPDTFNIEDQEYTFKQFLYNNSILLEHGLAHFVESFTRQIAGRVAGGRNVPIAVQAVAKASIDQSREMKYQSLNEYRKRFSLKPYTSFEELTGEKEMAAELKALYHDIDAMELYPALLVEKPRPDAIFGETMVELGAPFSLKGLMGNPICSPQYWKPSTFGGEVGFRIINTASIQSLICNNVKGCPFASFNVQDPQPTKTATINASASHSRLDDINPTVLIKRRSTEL
- test summary: Inhibition of COX2 isolated from rat seminal vesicles assessed as reduction of PGG2 to PGH2 using arachidonic acid substrate preincubated for 15 mins followed by substrate addition
recorded endpoint: IC50 (µM)
Field format: number, assumed µM, no unit text.

Completed entries (count: 3):
compound structure string: NS(=O)(=O)c1ccc(N2C(=O)/C(=C/c3ccc(C(F)(F)F)cc3)C=C2c2ccc(Cl)cc2)cc1
recorded endpoint: IC50
display unit: µM
measured number: 0.62

compound structure string: COc1cc(/C=C2\C=C(c3ccc(Cl)cc3)N(c3ccc(S(N)(=O)=O)cc3)C2=O)cc(OC)c1OC
recorded endpoint: IC50
display unit: µM
measured number: 0.42

compound structure string: C/C(=N\NC(=O)CNC(=O)c1cccc(S(=O)(=O)Nc2ccccc2Cl)c1)c1ccc(F)cc1
recorded endpoint: IC50
display unit: µM
measured number: 8.4

Using the record for "O=C(CNC(=O)c1cccc(S(=O)(=O)Nc2ccccc2Cl)c1)N/N=C/c1ccc(C(F)(F)F)cc1" , report its IC50.
8.9

Origin of values: ChEMBL document CHEMBL4602601
